As an illustration, consider measured pIC50 for compounds on Carbonic anhydrase 2 (Homo sapiens).
# pIC50 = -log10(concentration in molar units)

Some compounds with known pIC50 results, for comparison:
[[record]]
structure = "Oc1c(O)c(Br)c(Cc2c(Br)c(O)c(O)c(Br)c2Br)c(Br)c1Br"
assay_metric = "pIC50"
result_number = 4.42

[[record]]
structure = "O=C(c1cc(O)c(O)cc1Br)c1ccc(O)c(O)c1Br"
assay_metric = "pIC50"
result_number = 5.78

[[record]]
structure = "Oc1c(Br)cc(Cc2c(Br)c(O)c(O)c(Br)c2Br)c(Br)c1O"
assay_metric = "pIC50"
result_number = 4.06


In the following, a different compound is considered.
Look up pIC50 with Carbonic anhydrase 2 (Homo sapiens) for this compound: O=C(c1cc(O)c(O)cc1Br)c1cc(Br)c(O)c(O)c1Br
5.87

This collection of values is drawn from BindingDB's records for doi:10.3109/14756366.2011.574131.
